experiment_description: Blood levels in mice after intramuscular administration
condition_details: mouse, in vivo, im, 20 mg/kg
property: half-life (min)
Answers are plain numbers, in min.

Given the compound C[C@@H](O)[C@H]1C(=O)N2C(C(=O)[O-])=C(SCc3cc[n+](C)cc3)C[C@H]12 [Example 1] , write its reported half-life.
10

###

Please provide measured Cmax for the entries that follow.
experiment_description: Blood levels in mice after intramuscular administration;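 note: compounds dissolved in 0.1 M phosphate buffer at pH 7, data from one experiment using four mice for each compound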
condition_details: mouse, blood, im, 20 mg/kg
Answers are plain numbers, in ng/mL.

# example entries with known answers
C[C@@H](O)[C@H]1C(=O)N2C(C(=O)[O-])=C(SCc3cccc[n+]3C)C[C@H]12 [Example 4] ... 15500
C[C@@H](O)[C@H]1C(=O)N2C(C(=O)[O-])=C(SCc3n(C)cc[n+]3C)C[C@H]12 [Example 9] ... 16700
C[C@@H](O)[C@H]1C(=O)N2C(C(=O)[O-])=C(SCc3n[n+](C)nn3C)C[C@H]12 [Example 20] ... 28400
C[C@@H](O)[C@H]1C(=O)N2C(C(=O)[O-])=C(SCc3scc[n+]3C)C[C@H]12 [Example 11] ... 14900
C[C@@H](O)[C@H]1C(=O)N2C(C(=O)[O-])=C(SCCc3cc[n+](C)cc3)C[C@H]12 [Example 2] ... 13900
C[C@@H](O)[C@H]1C(=O)N2C(C(=O)[O-])=C(SCc3n(Cc4ccccc4)cc[n+]3C)C[C@H]12 [Example 13] ... 14800

Give Cmax for all compounds that follow.
1. C[C@@H](O)[C@H]1C(=O)N2C(C(=O)[O-])=C(SCc3cc[n+](C)cc3)C[C@H]12 [Example 1]
2. Cc1sc(CSC2=C(C(=O)[O-])N3C(=O)[C@H]([C@@H](C)O)[C@H]3C2)c(C)[n+]1C [Example 10]
3. Cc1ccc[n+](C)c1CSC1=C(C(=O)[O-])N2C(=O)[C@H]([C@@H](C)O)[C@H]2C1 [Example 7]

1. 14000
2. 20100
3. 19200

Given the compound C[C@@H](O)[C@H]1C(=O)N2C(C(=O)[O-])=C(SCc3cn(C)n[n+]3CC(=O)O)C[C@H]12 [Example 17] , write its reported Cmax.
11000

###

Tested on: P. aeruginosa A21213
experiment_description: M.I.C., tube dilution
Assay type: cell-based
condition_details: Pseudomonas aeruginosa, A21213, overnight incubation at 37° C., Nutrient Broth; read-out: MIC
Please provide measured MIC for the entries that follow.
Numbers only, in µg/mL.

# example entries with known answers
C[C@@H](O)[C@H]1C(=O)N2C(C(=O)[O-])=C(SCc3cn(C)n[n+]3CC(=O)O)C[C@H]12 ... 16
C[C@@H](O)[C@H]1C(=O)N2C(C(=O)[O-])=C(SCc3cc[n+](C)cc3)C[C@H]12 ... 1
Cc1sc(CSC2=C(C(=O)[O-])N3C(=O)[C@H]([C@@H](C)O)[C@H]3C2)c(C)[n+]1C ... 2
C[C@@H](O)[C@H]1C(=O)N2C(C(=O)[O-])=C(SCCc3cccc[n+]3C)C[C@H]12 ... 2
C[C@@H](O)[C@H]1C(=O)N2C(C(=O)[O-])=C(SCCc3cc[n+](C)cc3)C[C@H]12 ... 2

Give MIC for all compounds that follow.
1. Cc1c(CSC2=C(C(=O)[O-])N3C(=O)[C@H]([C@@H](C)O)[C@H]3C2)ccc[n+]1C
2. C[C@@H](O)[C@H]1C(=O)N2C(C(=O)[O-])=C(SCc3n(Cc4ccccc4)cc[n+]3C)C[C@H]12

[0.5, 2]

Give MIC for all compounds that follow.
1. C[C@@H](O)[C@H]1C(=O)N2C(C(=O)[O-])=C(SCc3ccc[n+](C)c3)C[C@H]12
2. C[C@@H](O)[C@H]1C(=O)N2C(C(=O)[O-])=C(SCc3cccc[n+]3C)C[C@H]12

[0.5, 0.13]

Give MIC for all compounds that follow.
1. CCC[n+]1ccc(CSC2=C(C(=O)[O-])N3C(=O)[C@H]([C@@H](C)O)[C@H]3C2)cc1
2. C[C@@H](O)[C@H]1C(=O)N2C(C(=O)[O-])=C(SCc3cn(CC(=O)O)n[n+]3C)C[C@H]12
3. CC(SC1=C(C(=O)[O-])N2C(=O)[C@H]([C@@H](C)O)[C@H]2C1)c1cc[n+](C)cc1 (stereo partly shown)

1. 1
2. 63
3. 2

Given the compound C[C@@H](O)[C@H]1C(=O)N2C(C(=O)[O-])=C(SCc3n[n+](C)nn3C)C[C@H]12 , write its reported MIC.
16
